B1: NF2 (merlin) isoform 7, human, full length (507 aa, lacks exons 2-3 = isoform-1 residues 39-121; exon-16 C-terminus), P35240-4 (parent)
chain: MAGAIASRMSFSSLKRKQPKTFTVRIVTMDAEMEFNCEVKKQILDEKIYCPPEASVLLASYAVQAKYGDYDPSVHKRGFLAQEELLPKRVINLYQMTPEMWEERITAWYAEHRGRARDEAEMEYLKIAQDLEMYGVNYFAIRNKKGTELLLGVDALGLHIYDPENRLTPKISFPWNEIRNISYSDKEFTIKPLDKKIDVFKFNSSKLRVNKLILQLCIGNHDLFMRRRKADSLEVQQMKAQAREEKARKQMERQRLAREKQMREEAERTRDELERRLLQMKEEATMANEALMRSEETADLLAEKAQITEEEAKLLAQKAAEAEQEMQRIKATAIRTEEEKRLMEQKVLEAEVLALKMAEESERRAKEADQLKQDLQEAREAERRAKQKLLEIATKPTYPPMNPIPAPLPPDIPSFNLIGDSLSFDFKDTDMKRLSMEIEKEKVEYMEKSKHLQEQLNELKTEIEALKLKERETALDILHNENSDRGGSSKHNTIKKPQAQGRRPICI

# Variants of: B1
# experimentNotes: reverse yeast two-hybrid deep mutational scan (rY2H-seq): NF2 isoform 7 mutant library as bait mated with wild-type prey strains; selection on medium lacking adenine for non-interacting pairs; NextSeq paired-end sequencing; enrichment vs …
# conditionSummary: with NF2 C-terminal domain (wild type; homomeric NF2-NF2 interaction), P35240; yeast diploids after mating (RBait_S3 x RPrey_S3), 30 °C, selection for reporter genes on NB agar; human ABL2 co-expressed as the kinase-dead K35M mutant …; HIGHER = WEAKER BINDING (the opposite of display enrichments): higher = stronger loss of interaction: reverse Y2H selects yeast in which bait and prey do NOT interact (growth without adenine), so a …; hits-only table; partner unresolved; scale: rY2H score; numbering: uniprot, sequence starts at 1
recordedEndpoint: enrichment

Below, 5 variants whose answers are already recorded.
- mutationString: "R293A"
  recordedEndpoint: "enrichment"
  testValue: 1.81
- mutationString: "P405L"
  recordedEndpoint: "enrichment"
  testValue: 7.16
- mutationString: "F139E"
  recordedEndpoint: "enrichment"
  testValue: 20.1
- mutationString: "T336D"
  recordedEndpoint: "enrichment"
  testValue: 3.64
- mutationString: "E323A"
  recordedEndpoint: "enrichment"
  testValue: 1.8

P: Q64M
Q: E245A
R: P399S
S: L214E
Incoming: Task for the reader: rank each entry by its enrichment, from the minimum upward. API: response body holds the labels in the requested order.
Outgoing: Q, S, R, P
(Q: 1.58, S: 2.48, R: 3.98, P: 5.81)

1: M262D
2: A128V
3: E259T
4: P163E
Incoming: Please list these in order of increasing enrichment. Thank you! Please reply with the labels ordered as requested. Many thanks.
Outgoing: 2, 4, 3, 1
(2: 1.47, 4: 2.31, 3: 4.23, 1: 6.41)

1: L156K
2: A358K
Incoming: When their enrichment values are compared, which is larger, 1 or 2 ? Your answer should be the label attached to the chosen record.
Outgoing: 2

P: N137Q
Q: N165E
Incoming: From the recorded data, which exceeds the other in enrichment: P or Q ? Selection: enter the item's label.
Outgoing: Q
(Q: 5.73, P: 1.42)

# credit: paper PMC10244618
